- System: PC15
- measurement protocol: qHTS profiling for inhibitors of Plasmodium falciparum proliferation (AID 504749); note: nearly all actives have a fitted effect of over 60% in size
- measurement context: P. falciparum in erythrocytes, SYBR Green DNA, 72 h; series mostly up to 28.7 µM
Records with an inconclusive call do not appear. Calls of active or inactive are those of the source. Calls come from the whole dose curve; as a rule, active = well fitted inhibition curve with a large enough effect; inconclusive = small, poorly fitted or top-dose-only effect; inactive = flat fitted curve, though single readings scatter.
Just give me one of these, please: active, inactive

| molecule | class label |
| --- | --- |
| OC[C@@H](O)C(O[C@@H]1O[C@@H](CO)[C@H](O)[C@H](O)[C@H]1O)[C@H](O)[C@@H](O)CO (stereo partly specified) | inactive |
| C/C=C1/NN(CCCN2CCN(c3cccc(Cl)c3)CC2)C(=O)N1CCOc1ccccc1 | inactive |
| Clc1ccc(CS[C@@H](Cn2ccnc2)c2ccc(Cl)cc2Cl)cc1 | active |
| CC[C@@]1(O)C[C@H](O[C@H]2C[C@@H](N(C)C)[C@@H](O[C@H]3C[C@@H](O)[C@@H](O[C@H]4CCC(=O)[C@@H](C)O4)[C@@H](C)O3)[C@@H](C)O2)c2c(cc3c(c2O)C(=O)c2c(O)cccc2C3=O)[C@H]1C(=O)OC | active |
| OC[C@@H]1O[C@](CO)(O[C@H]2O[C@H](CO)[C@@H](O)[C@H](O)[C@H]2O)[C@H](O)[C@H]1O | inactive |

Kindly review the next molecule as well.
// query In this assay, the call recorded for CO[C@H]1C[C@@H]2CC[C@@H](C)[C@@](O)(O2)C(=O)C(=O)N2CCCC[C@H]2C(=O)O[C@H]([C@H](C)C[C@@H]2CC[C@@H](O)[C@H](OC)C2)CC(=O)[C@H](C)/C=C(\C)[C@@H](O)[C@@H](OC)C(=O)[C@H](C)C[C@H](C)/C=C/C=C/C=C/1C was what?
// result active

Data provenance is PubChem BioAssay (NCATS).
